assay: self-splicing fitness, log relative to wild type (ln ratio); higher = more splicing; Tetrahymena group I intron in knt gene, E. coli kanamycin selection, DiMSum; sequences stand for … in CUCUCU…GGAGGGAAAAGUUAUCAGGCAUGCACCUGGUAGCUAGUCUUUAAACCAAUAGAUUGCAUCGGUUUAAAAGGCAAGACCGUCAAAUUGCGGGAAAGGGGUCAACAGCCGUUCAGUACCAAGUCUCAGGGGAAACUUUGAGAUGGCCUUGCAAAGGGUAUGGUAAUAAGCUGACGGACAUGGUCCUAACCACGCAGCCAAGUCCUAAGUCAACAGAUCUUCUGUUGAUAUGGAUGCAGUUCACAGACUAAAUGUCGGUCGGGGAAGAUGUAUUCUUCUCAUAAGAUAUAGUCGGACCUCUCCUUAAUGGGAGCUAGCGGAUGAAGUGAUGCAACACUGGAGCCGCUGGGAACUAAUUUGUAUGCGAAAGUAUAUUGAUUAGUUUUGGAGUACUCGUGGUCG; details: 37 °C;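 also: selection with 25 µg/mL kanamycin versus none on LB agar overnight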
VALUE TYPE: self-splicing fitness (ln)
Answer with the value's number alone.

primary_sequence=CGUUAGCAAUAUUACGAAAU value_type="self-splicing fitness (ln)" reported_result=-2.2

Fill in: self-splicing fitness (ln) of "ACCGAGCAAUAUUACGUGUG" is ___
-1.79

What self-splicing fitness (ln) value was documented for this sequence, "AGCAAGCAAUAUUACGGGCG" ?
-0.377

Could you share which self-splicing fitness (ln) value was measured for "GGCAAGCAAUAUUACGACAU" ?
0.141

====

experiment: self-splicing fitness, log relative to wild type (ln ratio); higher = more splicing; Tetrahymena group I intron in knt gene, E. coli kanamycin selection, DiMSum; sequences stand for … in CUCUCU…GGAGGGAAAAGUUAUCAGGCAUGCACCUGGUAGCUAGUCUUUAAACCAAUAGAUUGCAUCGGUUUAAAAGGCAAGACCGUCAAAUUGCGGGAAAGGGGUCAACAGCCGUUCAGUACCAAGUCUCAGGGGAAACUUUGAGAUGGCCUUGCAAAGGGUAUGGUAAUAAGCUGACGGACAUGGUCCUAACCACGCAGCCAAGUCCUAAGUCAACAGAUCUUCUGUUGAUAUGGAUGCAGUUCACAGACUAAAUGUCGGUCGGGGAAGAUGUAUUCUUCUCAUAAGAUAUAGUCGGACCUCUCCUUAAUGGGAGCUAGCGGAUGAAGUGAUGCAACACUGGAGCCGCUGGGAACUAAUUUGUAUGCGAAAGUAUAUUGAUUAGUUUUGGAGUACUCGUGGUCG; settings: 30 °C
If the reported self-splicing fitness (ln) equals or exceeds -3, assign fulfilled. If not, assign not fulfilled.

primary_sequence=CAGUAGCAAUAUUACGUAUC class_label="not fulfilled"
primary_sequence=AAUGAGCAAUAUUACGUUCA class_label=fulfilled

Check the entry "AAGAAGCAAUAUUACGUACC" : does self-splicing fitness (ln) equal or exceed -3?
fulfilled

Is the recorded value of self-splicing fitness (ln) equal to or greater than -3 for this sequence? "UGAUAGCAAUAUUACGACAG"
fulfilled

Reported self-splicing fitness (ln) reaches at least -3 for "AACGAGCAAUAUUACGAGCG" ?
fulfilled

Can "ACAUAGCAAUAUUACGCACC" be said to have self-splicing fitness (ln) at or above -3?
fulfilled

Hello, I need to know if "GUGGAGCAAUAUUACGAAAA" has measured self-splicing fitness (ln) not below -3. Thanks!
fulfilled

Textbook exercise: given the entry "CUUCAGCAAUAUUACGGGAG" , state whether its self-splicing fitness (ln) is greater than or equal to -3.
not fulfilled

Please tell me: is the sequence "CGUAAGCAAUAUUACGCCCA" at or over -3 in terms of self-splicing fitness (ln)?
fulfilled

Given the entry "AGGGAGCAAUAUUACGCACG" , answer whether its self-splicing fitness (ln) meets or surpasses -3.
fulfilled

hey, is self-splicing fitness (ln) for this one >= -3? "UUUAAGCAAUAUUACGAUCG"
fulfilled

Is reported self-splicing fitness (ln) greater than or equal to -3 here: "CGGAAGCAAUAUUACGUACG"
not fulfilled

Hi, just wondering whether "GAGCAGCAAUAUUACGUCCA" shows self-splicing fitness (ln) of -3 or higher.
fulfilled

Could you please find out whether "AUAAAGCAAUAUUACGAGAA" has self-splicing fitness (ln) that meets -3 or exceeds it?
fulfilled

Test whether the sequence "UUGAAGCAAUAUUACGGAUG" records self-splicing fitness (ln) of -3 or higher.
fulfilled

Is the recorded value of self-splicing fitness (ln) equal to or greater than -3 for this sequence? "GCACAGCAAUAUUACGAAGG"
fulfilled

Quick check: does "GUCUAGCAAUAUUACGUCAC" have self-splicing fitness (ln) greater than or equal to -3?
fulfilled
